# Tgt: CLR/RAMP3 receptor (UniProt Q16602 23-461; O60896 24-148, limits assumed)
# Sequence (Q16602 23-461 limits assumed, chain 1 of 2): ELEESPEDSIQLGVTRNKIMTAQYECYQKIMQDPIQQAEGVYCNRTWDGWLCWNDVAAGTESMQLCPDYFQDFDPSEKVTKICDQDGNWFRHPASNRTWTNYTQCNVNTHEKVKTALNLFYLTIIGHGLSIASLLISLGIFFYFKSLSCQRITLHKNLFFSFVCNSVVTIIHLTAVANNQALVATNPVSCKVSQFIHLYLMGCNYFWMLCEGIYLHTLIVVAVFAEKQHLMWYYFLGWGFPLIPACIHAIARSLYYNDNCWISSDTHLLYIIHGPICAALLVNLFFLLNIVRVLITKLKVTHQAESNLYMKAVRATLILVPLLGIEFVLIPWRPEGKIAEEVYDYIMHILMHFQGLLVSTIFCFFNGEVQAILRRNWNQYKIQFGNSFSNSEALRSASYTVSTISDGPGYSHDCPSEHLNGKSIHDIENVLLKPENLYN
# Sequence (O60896 24-148 limits assumed, chain 2 of 2): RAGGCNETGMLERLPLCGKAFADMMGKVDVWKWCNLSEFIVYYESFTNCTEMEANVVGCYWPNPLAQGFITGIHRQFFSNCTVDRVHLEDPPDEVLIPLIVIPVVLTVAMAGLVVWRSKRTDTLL
# Assay Notes: cell-based or functional assay
Non-standard residues stand in square brackets, D forms with d. No end group written: not given here. *: point of attachment. Palmitoyl = CCCCCCCCCCCCCCCC(=O)*; AEEA = NCCOCCOCC(=O)O
Attribute: IC50 (nM), CLR/RAMP3 cAMP antagonist assay

[ask] Please look up its IC50 (nM), CLR/RAMP3 cAMP antagonist assay: Palmitoyl-KVQKLAHQIYQFTDKDSAPVDPSSPHSY-NH2 [SEQ ID NO: 121]
[reply] 1.8 nM

[ask] # input binder: [AEEA]K(Palmitoyl)VQKLAHQIYSAPVDPSSPHSY-NH2 [SEQ ID NO: 114] ; wanted: its IC50 (nM), CLR/RAMP3 cAMP antagonist assay
[reply] 8.4 nM

[ask] Looking for the measured IC50 (nM), CLR/RAMP3 cAMP antagonist assay of Palmitoyl-KVQKLAHQIYSAPVDPSSPHSY-NH2 [SEQ ID NO: 122] , can you help?
[reply] 4.1 nM
